method notes: basal RPMI8226 viability, no added stimulus, profiling panel, cell-based, calcein-AM fluorescence, 48 h, PK04 Diversity Set (AID 1166);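 further: cells grown under basal conditions without added stimulus; test concentration not given here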
condition summary: RPMI8226 myeloma viability, higher = more signal
Hi! Could you tag entries with z-score below -2 as yes (1), and those at or above as no (0)? Much appreciated.

[
  {
    "compound": "COC(=O)C[C@H]1O[C@]2(C(=O)N(Cc3ccccc3)c3ccc(I)cc32)[C@@H](C)[C@@H]1[Si](C)(C)c1ccc(OC)cc1",
    "class assignment": "no (0)"
  },
  {
    "compound": "COc1cc2c(cc1OC)CN(C(=O)[C@H]1[C@@H]3C(=O)O[C@@H](c4ccccc4)[C@@H](c4ccccc4)N3[C@@H](c3ccccc3OCCO)[C@]13C(=O)Nc1ccc(C#CC4(O)CCCCCC4)cc13)CC2",
    "class assignment": "no (0)"
  },
  {
    "compound": "O=C1OCCC/C=C\\[C@H]2OC34C=CCN(CCN5CCOCC5)C(=O)[C@H]3N(CCCCCO)C(=O)[C@@H]4C12 (some centres not stated)",
    "class assignment": "no (0)"
  },
  {
    "compound": "C=CC[C@]1(C(=O)O)N=C(c2ccc(OCCCO)cc2)O[C@H]1c1ccccc1N=[N+]=[N-]",
    "class assignment": "no (0)"
  },
  {
    "compound": "CN1C(=O)C2C=CC(C(O)C3CC=CCC3)N(Nc3ccccc3)C2C1=O (configuration not stated)",
    "class assignment": "no (0)"
  },
  {
    "compound": "O=C1O[C@@H](c2ccccc2)[C@@H](c2ccccc2)N2[C@@H](c3ccccc3OCCO)[C@]3(C(=O)Nc4ccc(C#CC5=CCCCC5)cc43)[C@@H](C(=O)O)[C@H]12",
    "class assignment": "yes (1)"
  },
  {
    "compound": "COc1ccc(CCNC(=O)[C@@]2(c3ccc([N+](=O)[O-])cc3)CC(=O)N(C(C)C)[C@@H]2c2ccc(CO)cc2)cc1",
    "class assignment": "no (0)"
  },
  {
    "compound": "CC(=O)NCCCC[C@@H]1NC(=O)[C@@H]2C[C@H](C(=O)NCCCCCCN(C)C)[C@H](c3ccc(O)cc3)N2C1=O",
    "class assignment": "no (0)"
  },
  {
    "compound": "COCCOC(=O)N1C(=O)[C@@]2(c3cc(C#CCCO)ccc31)[C@H](c1ccc(O)cc1)N1[C@H](c3ccccc3)[C@H](c3ccccc3)OC(=O)[C@H]1[C@@H]2C(=O)Nc1nc2ccccc2s1",
    "class assignment": "no (0)"
  },
  {
    "compound": "C=C(CCCC)/C(=C/C[C@H](OC(=O)c1ccncc1)c1cccc(OCCO)c1)c1cc(C(=O)OC)ccc1OC",
    "class assignment": "no (0)"
  },
  {
    "compound": "[N-]=[N+]=NCc1ccccc1C[C@@]1(C(=O)N2CCOCC2)N=C(c2ccc(OCCCO)cc2)O[C@@H]1c1ccccc1N=[N+]=[N-]",
    "class assignment": "yes (1)"
  },
  {
    "compound": "O=C1OCC=C[C@H]2OC34C=CCN(Cc5ccccc5)C(=O)[C@H]3N(CCO)C(=O)[C@@H]4[C@@H]12 (some centres not stated)",
    "class assignment": "no (0)"
  },
  {
    "compound": "COc1cccc([C@H]2N[C@H](C(=O)O)CC[C@@H]2C)c1",
    "class assignment": "no (0)"
  },
  {
    "compound": "C=C(COC)C(=O)CC[C@H](OC(=O)c1ccccc1-c1ccccc1C(=O)O)c1cccc(OCCO)c1",
    "class assignment": "no (0)"
  },
  {
    "compound": "CN(C)C(=O)[C@@]1(Cc2ccccc2N=[N+]=[N-])N=C(c2ccc(OCCCO)cc2)O[C@H]1c1ccccc1CN=[N+]=[N-]",
    "class assignment": "yes (1)"
  },
  {
    "compound": "CO[C@H]1O[C@H](CO)[C@@H](OC(=O)CCc2ccccc2)[C@@H]2OC(=O)[C@H](Cc3cccc(Br)c3)C/C=C/C[C@@H](Cc3cccc(Br)c3)C(=O)O[C@@H]12",
    "class assignment": "no (0)"
  },
  {
    "compound": "COCCOC(=O)N1C(=O)[C@@]2(c3cc(C#CCNC(N)=O)ccc31)[C@H](c1ccc(OCCO)cc1)N1[C@H](c3ccccc3)[C@H](c3ccccc3)OC(=O)[C@H]1[C@@H]2C(=O)Nc1nc2ccccc2s1",
    "class assignment": "no (0)"
  }
]

----------
method notes: basal 3T3-L1 adipocyte mitochondrial potential changes, profiling panel, cell-based, JC-1 fluorescence, 3T3-L1 adipocytes, 24 h, 100 nL compound (AID 1168); further: test concentration not given here
condition summary: JC-1 mitochondrial fluorescence, higher = more signal, called active from +8 up or from −8 down

[
  {
    "compound": "CN1CCC(CCCO)=CC1C1CC1 (stereo unspecified)",
    "z-score": 0.57
  },
  {
    "compound": "COc1cc2c(cc1OC)CN(C(=O)[C@H]1[C@@H]3C(=O)O[C@@H](c4ccccc4)[C@@H](c4ccccc4)N3[C@@H](c3ccc(O)cc3)[C@]13C(=O)Nc1ccc(C#CC4(O)CCCCCC4)cc13)CC2",
    "z-score": -0.263
  },
  {
    "compound": "CN(C)C(=O)[C@@]1(Cc2ccccc2N=[N+]=[N-])N=C(c2ccc(OCCCO)cc2)O[C@H]1c1ccccc1CN=[N+]=[N-]",
    "z-score": 0.618
  },
  {
    "compound": "CO[C@@H]1COC(=O)[C@H](C)NC(=O)CC=C[C@@H](C)[C@H](OC)COC(=O)[C@H](C)NC(=O)CC=C[C@H]1C",
    "z-score": 1.44
  },
  {
    "compound": "CCOC(=O)C[C@H]1[C@H](OC(=O)Cc2ccc3c(c2)OCO3)[C@@H](NC(=O)CC(C)C)c2cc(OCCCO)ccc2N1C(=O)c1ccccc1",
    "z-score": 1.58
  },
  {
    "compound": "O=C(NCC(O)CO)[C@]1(Cc2ccccc2)N=C(c2ccc(OCCCO)cc2)O[C@@H]1c1ccccc1 (stereo partly specified)",
    "z-score": 1.03
  },
  {
    "compound": "C=CC[C@]1(C(=O)O)N=C(c2ccc(OCCCO)cc2)O[C@H]1c1ccccc1",
    "z-score": 0.0186
  },
  {
    "compound": "CC(C)[C@H]1NC(=O)[C@@]23C(=O)N[C@@H](Cc4ccccc4)C2[C@H](C)[C@@]2(C)O[C@H]2C3/C=C/C/C=C\\CNC(=O)[C@H](C)NC1=O (stereo partly specified)",
    "z-score": -0.0933
  },
  {
    "compound": "O=C(NCc1ccccc1)[C@@]1(CCS(=O)(=O)c2ccccc2)COC(c2ccc(OCCCO)cc2)=N1",
    "z-score": 1.11
  },
  {
    "compound": "O=C1OCCC=C[C@H]2OC34C=CCN(Cc5ccccc5)C(=O)[C@H]3N(CCO)C(=O)[C@@H]4C12 (stereo partly specified)",
    "z-score": 0.903
  },
  {
    "compound": "CCCNC(=O)[C@@]1(Sc2ccc(C)cc2)CC(=O)N(Cc2ccccc2Cl)[C@@H]1c1ccc(CO)cc1",
    "z-score": 0.0754
  }
]

----------
Tested on: Fibrinogen (Alexa647-labelled)
method notes: fibrinogen binders on compound microarrays, profiling panel, artefact control for SMM control-protein annotation, biochemical, small-molecule microarray, 635/667 nm fluorescence (AID 1131);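 further: z-score merges 667 nm fluorescence with per-spot signal-to-noise over triplicate slides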
condition summary: fibrinogen-A647 binding fluorescence, higher = more signal
measure: composite z-score

[
  {
    "molecule": "Cc1ccc([C@@H]2CC=C(C(=O)O)[C@H](c3ccccc3)N2S(=O)(=O)c2ccc(C)cc2)cc1",
    "study system": "Fibrinogen (Alexa647-labelled)",
    "val": 0.894
  },
  {
    "molecule": "C=CCC(OC(C)=O)[C@@H]1[C@@H](N(Cc2cccc3ccccc23)C(=O)c2ccc(C)cc2)c2cc(OCCCO)ccc2N1C(=O)c1ccc(-c2ccccc2)cc1 (stereo partly drawn)",
    "study system": "Fibrinogen (Alexa647-labelled)",
    "val": -0.5
  },
  {
    "molecule": "C=C(COC)/C(=C/C[C@@H](OC(=O)c1ccncc1)c1ccc(OCCO)cc1)c1cc(C(=O)OC)ccc1OC",
    "study system": "Fibrinogen (Alexa647-labelled)",
    "val": 0.791
  }
]

----------
Test system: wheat germ agglutinin (Triticum aestivum), Alexa647-labelled
method notes: wheat germ agglutinin binders on compound microarrays, profiling panel, artefact control for SMM control-protein annotation, biochemical, small-molecule microarray, 635/667 nm fluorescence (AID 1140);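 further: score merges 667 nm feature emission with signal to noise over triplicate slides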
condition summary: WGA-A647 binding, 635 nm fluorescence, higher = more signal
measure: composite z-score

[
  {
    "molecule": "CCOC(=O)C1=C[C@@H](c2ccccc2)N(S(=O)(=O)c2ccc(C)cc2)[C@H]1c1ccc(F)cc1",
    "measure": "composite z-score",
    "val": 1.08
  },
  {
    "molecule": "C=CCc1cccc([C@H]2N[C@H](C(=O)O)CC[C@@H]2C)c1",
    "measure": "composite z-score",
    "val": -0.173
  },
  {
    "molecule": "COc1cc2c(cc1OC)CN(C(=O)[C@@H]1[C@H]3C(=O)O[C@H](c4ccccc4)[C@H](c4ccccc4)N3[C@H](c3ccccc3OCCO)[C@@]13C(=O)Nc1ccccc13)CC2",
    "measure": "composite z-score",
    "val": 0.849
  },
  {
    "molecule": "CO[C@H]1COC(=O)[C@@H](OCc2ccccc2)C=C[C@H](C)[C@@H](OC)COC(=O)[C@H](OCc2ccccc2)C=C[C@@H]1C",
    "measure": "composite z-score",
    "val": -0.244
  },
  {
    "molecule": "COC(=O)Cn1c(C(=O)N2CCCC2)cc2c1C[C@H]1CN(C(=O)c3ccccc3)[C@@](Cc3ccc(OC)cc3)(C(=O)OC)[C@@H]21",
    "measure": "composite z-score",
    "val": 1.18
  },
  {
    "molecule": "C[C@@H]1NC(=O)[C@H](Cc2ccccc2)NC(=O)[C@@]23C(=O)N[C@@H](Cc4ccccc4)C2[C@H](C)[C@@]2(C)O[C@H]2C3/C=C/C/C=C\\CNC1=O (stereo partly specified)",
    "measure": "composite z-score",
    "val": -0.906
  }
]
